protocol_details: Human HepG2 cell viability assay in 384 well format
Type: toxicity, cell-based
Design: dose 125 nL, time 70.5 hour; concentration not given beside the values
test_parameters: HepG2 cells, read-out: Inhibition
outcome_measure: cytotoxicity at 70.5 h (%)
Please state the figure in %; there is no need to write the unit.

Worked cases, cytotoxicity at 70.5 h given:
                                   compound         outcome_measure  result_units  reported_result
0  N#CC1C(=O)Nc2c(cnn2C2CCCC2)C12CCCCC2 (stereo unspecified)  cytotoxicity at 70.5 h             %            -1.92
1  CCN(Cc1nc(C)no1)C(=O)C1CC(=O)N(Cc2cccnc2)C1 (stereo unspecified)  cytotoxicity at 70.5 h             %             17.6
2  CN1C(=O)C2(CC(=O)Nc3[nH]ncc32)c2cc(Cl)ccc21 (stereo unspecified)  cytotoxicity at 70.5 h             %            -29.3
3  CN1CCO[C@@H]2CN(S(=O)(=O)c3ccccc3)C[C@@H]2C1  cytotoxicity at 70.5 h             %             20.2
4  Nc1ncnc2nc(C3CCCCN3)ccc12 (stereo unspecified)  cytotoxicity at 70.5 h             %            -6.59

Enquiry: Supply reported cytotoxicity at 70.5 h belonging to this compound: `COc1ccc(OCCNCc2c(C)nn(C)c2N(C)C)cc1`
Return: 31.1

src = ChEMBL document CHEMBL3507680
